Molecular target: Human HSP90 alpha (Homo sapiens)
Construct: His tag (inferred from purification on a HisPrep FF column); made in house; host or cells: E. coli BL21 codon plus (Stratagene)
Experiment: Assay for the activity of inhibiting HSP90 enzyme (ATPase, malachite green)
Assay type: biochemical
Conditions: purified human HSP90 alpha, 1 mM ATP added, 37° C. for two hours, OD655; read-out: Enzyme-inhibiting activity (IC50, μM) Human HSP90α
endpointLabel: IC50 (µM)

Example results:
Nc1nc2cc(n1)-c1cc(c(Cl)cc1Cl)OCCCCCOc1cccc(c1)S2: 1.7
Cc1cc(C)c2cc1C(=O)NCCCCNC(=O)CCCSc1cc-2nc(N)n1: 1
Cc1cc(C)c2cc1C(=O)N(C)CCCC(=O)NCCSc1cc-2nc(N)n1: 1.2
Cc1cc(C)c2cc1C(=O)NCCCC(=O)N(CCO)CCSc1cc-2nc(N)n1: 3
Cc1cc(C)c2cc1C(=O)NCC[C@@H](C(=O)N1CCOCC1)NC(=O)CCSc1cc-2nc(N)n1: 2.7

1 = Cc1cc(C)c2cc1C(=O)NCCCN(CCO)C(=O)CCSc1cc-2nc(N)n1
2 = Nc1nc2cc(n1)-c1cc(c(Cl)cc1Cl)C(=O)NCCCCCC(=O)NCCS2
stdin: Could you kindly indicate whether 1 or 2 has the higher IC50 value? Refer to your chosen entry by its label in the reply.
stdout: 1
(1: 2.8 µM, 2: 1.4 µM)

1 = Cc1cc(C)c2cc1C(=O)NCCCCCNC(=O)C(C)CSc1cc-2nc(N)n1 (centres unmarked)
2 = COC(=O)[C@H]1CCNC(=O)c2cc(c(C)cc2C)-c2cc(nc(N)n2)SCCC(=O)N1
3 = Cc1cc(C)c2cc1C(=O)NCCCN(C)C(=O)CCSc1cc-2nc(N)n1
4 = Nc1nc2cc(n1)-c1cc(c(Cl)cc1Cl)OCCOCCOc1cccc(c1)S2
stdin: Given 4 compounds, produce a descending ranking by IC50. Write the labels in rank order as requested.
stdout: 2, 1, 4, 3

* * *

Tested on: HCT116 cells
Assay: Measurement of cell growth inhibition (Cell Counting Kit-8, four days)
Conditions: Homo sapiens, HCT-116, 96 h, read-out: Cell growth-inhibiting activity (IC50, μM) Colon cancer HCT116, HCT116 colon cancer cell line, four days culture
endpointLabel: IC50 (µM)

Example results:
Nc1nc2cc(n1)-c1cc(c(Cl)cc1Cl)OCCCCCOc1cccc(c1)S2: 2.4
Cc1cc(C)c2cc1C(=O)NCCCCCC(=O)NCCSc1cc-2nc(N)n1: 0.15
COC(=O)[C@@H]1CCNC(=O)CCSc2cc(nc(N)n2)-c2cc(c(C)cc2C)C(=O)N1: 0.2
Cc1cc(C)c2cc1C(=O)NCCN(C)CCNC(=O)CCSc1cc-2nc(N)n1: 0.5

I = Cc1cc(C)c2cc1C(=O)N(C)CCCNC(=O)CCSc1cc-2nc(N)n1
II = Nc1nc2cc(n1)-c1cc(c(Cl)cc1Cl)OCCOCCOc1cccc(c1)S2
stdin: Between I and II , which one shows the smaller IC50 number? Refer to your chosen entry by its label in the reply.
stdout: I

* * *

Test system: HCT116 cells
Test: Measurement of cell growth inhibition (Cell Counting Kit-8, four days);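 also: cells exposed to a range of test concentrations at 37 °C in 5% CO2 for four days, then growth read as absorbance with Cell Counting Kit-8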
Conditions: Homo sapiens, HCT-116, 96 h, read-out: Cell growth-inhibiting activity (IC50, μM) Colon cancer HCT116, HCT116 colon cancer cell line, four days culture
endpointLabel: IC50 (µM)

Example results:
Cc1cc(C)c2cc1C(=O)NCCCCCNC(=O)C(C)CSc1cc-2nc(N)n1 (stereo not shown) [Compound 7]: 0.4
Nc1nc2cc(n1)-c1cc(c(Cl)cc1Cl)C(=O)NCCCC(=O)NCCS2 [Compound 15]: 0.14
Nc1nc2nc(n1)-c1cc(c(Cl)cc1Cl)OCCCCOc1cccc(c1)S2 [Compound 26]: 7.4
Nc1nc2cc(n1)-c1cc(c(Cl)cc1Cl)C(=O)NCCCNC(=O)CCS2 [Compound 8]: 0.21

P = COCCN1CCSc2cc(nc(N)n2)-c2cc(c(C)cc2C)C(=O)NCCCC1=O [Compound 80]
Q = Cc1cc(C)c2cc1C(=O)NCCC(=O)NCCSc1cc-2nc(N)n1 [Compound 12]
R = COC(=O)[C@H]1CCNC(=O)c2cc(c(C)cc2C)-c2cc(nc(N)n2)SCCC(=O)N1 [Compound 69]
S = CC(=O)NC1CCNC(=O)c2cc(c(C)cc2C)-c2cc(nc(N)n2)SCCNC1=O (stereo not shown) [Compound 74]
T = Cc1cc(C)c2cc1C1=N[C@@H](CCNC(=O)CCSc3cc-2nc(N)n3)CO1 [Compound 83]
stdin: Please put the entries in order of rising IC50. Write the labels in rank order as requested.
stdout: P, T, Q, R, S
